# Test system: Mus musculus
# TEST NAME: Neurotoxicity in mouse at 300 mg/kg, ip after 4 hrs by rotarod test
# Format: toxicity, organism-based
# Parameters: dose 300 mg/kg, route intraperitoneal
# CONDITION LABEL: in vivo
ATTRIBUTE MEASURED: Neurotoxicity

INSERT INTO assay_data (compound, attribute_measured, measured_result) VALUES
  ('CC(CO)NC(=O)c1ccc2oc3cc(Cl)ccc3c(=O)c2c1 (racemic)', 'Neurotoxicity', 'Not Active'),
  ('CCC(O)CNCc1ccc2oc3cc(Cl)ccc3c(=O)c2c1 (racemic)', 'Neurotoxicity', 'Neurotoxic'),
  ('CN(CCO)Cc1ccc2oc3cc(Cl)ccc3c(=O)c2c1', 'Neurotoxicity', 'Neurotoxic'),
  ('O=c1c2ccc(Cl)cc2oc2ccc(CNCCO)cc12', 'Neurotoxicity', 'Not Active'),
  ('Cl.O=c1c2ccc(Cl)cc2oc2ccc(CNCCCO)cc12', 'Neurotoxicity', 'Neurotoxic'),
  ('CC(C)(CCO)NCc1ccc2oc3cc(Cl)ccc3c(=O)c2c1', 'Neurotoxicity', 'Not Active'),
  ('C[C@@H](CO)NCc1ccc2oc3cc(Cl)ccc3c(=O)c2c1', 'Neurotoxicity', 'Not Active'),
  ('C[C@@H](O)CNCc1ccc2oc3cc(Cl)ccc3c(=O)c2c1', 'Neurotoxicity', 'Neurotoxic'),
  ('C[C@H](CO)NCc1ccc2oc3cc(Cl)ccc3c(=O)c2c1', 'Neurotoxicity', 'Not Active'),
  ('CC(CCl)N(C)Cc1ccc2oc3cc(Cl)ccc3c(=O)c2c1.Cl (stereo unspecified)', 'Neurotoxicity', 'Neurotoxic'),
  ('C[C@@H](CO)N(C)Cc1ccc2oc3cc(Cl)ccc3c(=O)c2c1', 'Neurotoxicity', 'Neurotoxic');
